Origin of values: patent US20200190209A1

Target under test: human CD38 (full length, on cells) (human, UniProt P28907 1-300)
Assay name: cell-based or functional assay
Hi there, I'd appreciate the recorded ADCC target lysis EC50 for every entry that follows.
Write it as a number; the unit ng/mL goes unstated.

## Input Specify reported ADCC target lysis EC50 for the binder shown: aCD38-b-348-m1 (antibody, IgG1, V domains shown, also called aCD38-b-348-ml) VH: QLQLQESGPGLVKPSETLSLTCTVSGGSISSSDYYWGWIRQPPGKGLEWIGSIYYSGSTYYNPSLKSRVTISVDTSKNQFSLKLSSVTAADTAVYYCARGQYSSGWYAYPFDMWGQGTMVTVSS VL: EIVLTQSPGTLSLSPGERATLSCRASQSVRSSYLAWYQQKPGQAPRLLIYGASSRATGIPDRFSGSGSGTDFTLTISRLEPEDFAVYYCQQEANVYTFGGGTKVEIK
## Output 2.8

## Input Specify reported ADCC target lysis EC50 for the binder shown: aCD38-b-348-m4 (antibody, IgG1, V domains shown) VH: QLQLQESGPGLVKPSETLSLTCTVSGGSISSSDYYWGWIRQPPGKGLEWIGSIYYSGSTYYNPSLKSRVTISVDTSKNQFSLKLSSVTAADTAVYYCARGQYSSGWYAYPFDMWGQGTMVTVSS VL: EIVLTQSPGTLSLSPGERATLSCRASQSVRSSYLAWYQQKPGQAPRLLIYGASSRATGIPDRFSGSGSGTDFTLTISRLEPEDFAVYYCQQEGNVYTFGGGTKVEIK
## Output 1.4

## Input Specify reported ADCC target lysis EC50 for the binder shown: aCD38-b-348-m2 (antibody, IgG1, V domains shown) VH: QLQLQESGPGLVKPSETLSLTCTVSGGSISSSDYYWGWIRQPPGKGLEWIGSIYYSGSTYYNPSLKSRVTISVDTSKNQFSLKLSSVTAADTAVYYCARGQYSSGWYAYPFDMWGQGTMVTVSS VL: EIVLTQSPGTLSLSPGERATLSCRASQSVRSSYLAWYQQKPGQAPRLLIYGASSRATGIPDRFSGSGSGTDFTLTISRLEPEDFAVYYCQQDSNVYTFGGGTKVEIK
## Output 2.5
